The following molecules are shown together with reported MBC values.
- Tested on: Bacillus cereus
- Protocol Text: Antibacterial activity against Bacillus cereus clinical isolate treated for 24 hrs followed by sub-cultivated for 72 hrs by micro dilution method
- Format: functional
Give your result in µM as a bare value.

Below, each entry is followed by its recorded MBC result.
>>> recorded_value("CCNc1nnc(Cc2cc(OC)c(OC)cc2S(=O)(=O)N(C)C)o1")
270
>>> recorded_value("CCNc1nnc(Cc2cc(OC)c(OC)cc2S(=O)(=O)N(C)C)s1")
260
>>> recorded_value("CCn1c(Cc2cc(OC)c(OC)cc2S(=O)(=O)N(C)C)n[nH]c1=S")
520
>>> recorded_value("CCCn1c(Cc2cc(OC)c(OC)cc2S(=O)(=O)N(C)C)n[nH]c1=O")
650

Attention now turns to another entry.
Exercise: For "CCCCn1c(Cc2cc(OC)c(OC)cc2S(=O)(=O)N(C)C)n[nH]c1=O" , write its MBC.
Solution: 760

###

- Tested on: Escherichia coli
- Protocol Text: Antibacterial activity against Escherichia coli ATCC 35210 after 24 hrs by micro dilution method
- Type: functional
- Assay Context: ATCC 35210, 24 h
# note: exactly 400 µM is not below, so it is condition not met; use condition met for MIC strictly under it

Completed entries (count: 5):
>>> category_label("COc1cc(Cc2n[nH]c(=S)n2C(C)C)c(S(=O)(=O)N(C)C)cc1OC")
"condition not met"
>>> category_label("CNc1nnc(Cc2cc(OC)c(OC)cc2S(=O)(=O)N(C)C)o1")
"condition met"
>>> category_label("CCCCn1c(Cc2cc(OC)c(OC)cc2S(=O)(=O)N(C)C)n[nH]c1=S")
"condition not met"
>>> category_label("CCCCn1c(Cc2cc(OC)c(OC)cc2S(=O)(=O)N(C)C)n[nH]c1=O")
"condition met"
>>> category_label("COc1cc(Cc2n[nH]c(=S)n2C)c(S(=O)(=O)N(C)C)cc1OC")
"condition not met"

Exercise: Consider "CC1(C)S[C@@H]2[C@H](NC(=O)[C@H](N)c3ccccc3)C(=O)N2[C@H]1C(=O)O" . Does its MIC lie strictly below 400 µM?
Solution: condition met

Exercise: Is the reported MIC for "COc1cc(Cc2n[nH]c(=O)n2C(C)(C)C)c(S(=O)(=O)N(C)C)cc1OC" strictly below 400 µM?
Solution: condition met

Exercise: In plain terms, does "CCCNc1nnc(Cc2cc(OC)c(OC)cc2S(=O)(=O)N(C)C)s1" come in under 400 µM for MIC?
Solution: condition met

Exercise: Input "COc1cc(Cc2nnc(NC(C)C)s2)c(S(=O)(=O)N(C)C)cc1OC" ; condition: MIC strictly below 400 µM. Does it hold?
Solution: condition met

Exercise: Is the reported MIC for "CCCn1c(Cc2cc(OC)c(OC)cc2S(=O)(=O)N(C)C)n[nH]c1=O" strictly below 400 µM?
Solution: condition not met

Exercise: Report whether reported MIC is lower than 400 µM (strictly) for "CCCn1c(Cc2cc(OC)c(OC)cc2S(=O)(=O)N(C)C)n[nH]c1=S"
Solution: condition not met

Exercise: Dear reviewer, please state whether "CNc1nnc(Cc2cc(OC)c(OC)cc2S(=O)(=O)N(C)C)s1" has MIC strictly beneath 400 µM.
Solution: condition met

Exercise: # TODO verify MIC < 400 µM strictly for this molecule: "CCNc1nnc(Cc2cc(OC)c(OC)cc2S(=O)(=O)N(C)C)o1"
Solution: condition met

Exercise: Field: below-cutoff. Rule: recorded MIC strictly less than 400 µM. Subject: "CCn1c(Cc2cc(OC)c(OC)cc2S(=O)(=O)N(C)C)n[nH]c1=O"
Solution: condition met

Exercise: Consider "CCn1c(Cc2cc(OC)c(OC)cc2S(=O)(=O)N(C)C)n[nH]c1=S" . Does its MIC lie strictly below 400 µM?
Solution: condition met

Exercise: Please check: MIC for "CCCCNc1nnc(Cc2cc(OC)c(OC)cc2S(=O)(=O)N(C)C)o1" , strictly under 400 µM or not?
Solution: condition not met

Exercise: Does "CCCNc1nnc(Cc2cc(OC)c(OC)cc2S(=O)(=O)N(C)C)o1" have MIC strictly under 400 µM?
Solution: condition not met

Exercise: # TODO verify MIC < 400 µM strictly for this molecule: "CN[C@@H]1[C@H](O[C@H]2[C@H](O[C@H]3[C@H](O)[C@@H](O)[C@H](N=C(N)N)[C@@H](O)[C@@H]3N=C(N)N)O[C@@H](C)[C@]2(O)C=O)O[C@@H](CO)[C@H](O)[C@H]1O"
Solution: condition met

Exercise: Report whether reported MIC is lower than 400 µM (strictly) for "CCCCNc1nnc(Cc2cc(OC)c(OC)cc2S(=O)(=O)N(C)C)s1"
Solution: condition not met

Exercise: I'd appreciate it if you could check whether "COc1cc(Cc2n[nH]c(=S)n2C(C)(C)C)c(S(=O)(=O)N(C)C)cc1OC" has MIC smaller than 400 µM.
Solution: condition met

Exercise: Find out if reported MIC for "CCNc1nnc(Cc2cc(OC)c(OC)cc2S(=O)(=O)N(C)C)s1" is less than 400 µM
Solution: condition met
